target: Cytochrome P450 2C19 (Homo sapiens) (UniProt P33261); assay: Cytochrome panel assay with activity outcomes; conditions: recombinant CYP, pro-luciferin dealkylation, luminescence, p450-cyp2c19; series mostly up to 57.1 µM
Sequence (P33261 whole entry, looked up): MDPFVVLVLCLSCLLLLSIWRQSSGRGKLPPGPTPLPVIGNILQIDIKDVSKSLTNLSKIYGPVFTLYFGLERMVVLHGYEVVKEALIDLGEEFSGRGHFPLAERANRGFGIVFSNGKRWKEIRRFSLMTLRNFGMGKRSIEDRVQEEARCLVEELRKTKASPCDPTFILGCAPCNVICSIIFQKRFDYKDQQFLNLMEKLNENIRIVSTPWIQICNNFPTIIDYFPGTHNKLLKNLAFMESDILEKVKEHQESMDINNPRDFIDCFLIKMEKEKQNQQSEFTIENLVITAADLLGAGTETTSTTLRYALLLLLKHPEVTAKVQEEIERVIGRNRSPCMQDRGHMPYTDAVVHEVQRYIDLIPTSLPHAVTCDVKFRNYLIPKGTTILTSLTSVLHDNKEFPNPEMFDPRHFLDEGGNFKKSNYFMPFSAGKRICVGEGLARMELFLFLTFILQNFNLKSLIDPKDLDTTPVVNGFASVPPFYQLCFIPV
Hit rate of the full screen: of about 16,000 compounds, about 5,800 (36%) were called active. Not shown: some 23% with an inconclusive outcome. Calls come from the whole dose curve; as a rule, active = well fitted curve in the direction sought with a large enough effect; inconclusive = small, poorly fitted or top-dose-only effect, or effect the other way; inactive = no such curve, though single readings can be large or run the other way. Some of the results follow.
Classes to choose from: 1 (active), -1 (inactive)

| Compound | Label |
| --- | --- |
| O=S(=O)(Cc1cc(Oc2ccccc2)nc(-c2ccccc2)n1)c1ccccc1 | 1 |
| CCc1cc(C(=O)OC)c(NC(=O)CCCC(=O)O)s1 | -1 |
| CCOC(=O)c1cc(CC)sc1NC(=O)C(c1ccccc1)c1ccccc1 | 1 |
| Cc1ccc(NS(=O)(=O)c2cc(C(=O)NCc3ccccn3)ccc2Cl)cc1 | 1 |
| O=S(Cc1cc(Oc2ccccc2)nc(-c2ccccc2)n1)c1ccccc1 (configuration not stated) | 1 |
| Fc1ccc(-c2[nH]ncc2-c2nnnn2-c2ccccc2)c(F)c1 | 1 |
| FC(F)(F)c1nc(N2CCCC2)ncc1-c1nnnn1-c1ccccc1 | 1 |
| COC(=O)c1cc(-c2ccccc2)sc1NC(=O)CN1C(=O)c2ccccc2C1=O | 1 |
| c1ccc(CSc2ncnc3c2sc2nc(N4CCOCC4)c4c(c23)CCCC4)cc1 | 1 |
| NC(=S)N/N=C/c1ccccc1OCc1cccc(Cl)c1 | 1 |

Please share the test call associated with `CCOC(=O)c1cc(-c2ccccc2)sc1NC(=O)C(C)(C)C` .
-1

Please share the test call associated with `CCSc1ncnc2c1sc1nc(-c3ccco3)c3c(c12)CC(C)(C)OC3` .
-1

Please share the test call associated with `Cc1ccc(NC(=S)/C(=C(\[O-])c2ccc(C)c([N+](=O)[O-])c2)[n+]2ccccc2)cc1C` .
1

Please share the test call associated with `O=C1c2ccccc2C(Cc2ccncc2)(Cc2ccncc2)c2ccccc21` .
-1

Please share the test call associated with `O=C(c1cnc(-c2ccccc2)s1)c1ccc(Cl)cc1Cl` .
1

Please share the test call associated with CNc1cc(CS(=O)c2ccccc2)nc(-c2ccccc2)n1 (configuration not stated) .
1

Please share the test call associated with `Nc1ncnc2c1nc(Br)n2[C@@H]1O[C@H]2COP(=O)(O)O[C@@H]2[C@H]1O` .
-1

Please share the test call associated with `O=C1N(c2ccccc2)c2ccccc2C1(Cc1ccncc1)Cc1ccncc1` .
1

====

molecular target: Cytochrome P450 2C19 (Homo sapiens) (UniProt P33261); experiment: Cytochrome panel assay with activity outcomes; conditions: recombinant CYP, pro-luciferin dealkylation, luminescence, p450-cyp2c19; series mostly up to 57.1 µM
In all, about 16,000 compounds went through this assay and about 5,800 (36%) were called active. Not shown: some 23% with an inconclusive outcome. Calls come from the whole dose curve; as a rule, active = well fitted curve in the direction sought with a large enough effect; inconclusive = small, poorly fitted or top-dose-only effect, or effect the other way; inactive = no such curve, though single readings can be large or run the other way. Some of the results follow.
Classes to choose from: active, inactive

Please share the test call associated with `COc1ccc(O)c(/C=N/NC(=O)CSc2nnc(C)n2-c2ccccc2)c1` .
inactive

Please share the test call associated with `Cc1ccc(-c2ccc(=O)n(CC(=O)NCCN(C)C)n2)cc1` .
inactive

Please share the test call associated with `O=C1NC(O)=NC1(c1ccccc1)c1ccccc1` .
inactive

Please share the test call associated with COc1ccc(S(=O)(=O)N2CC3CCCN3c3ccc(C(F)(F)F)cc32)cc1 (configuration not stated) .
active

Please share the test call associated with `O=C(CSc1nnc(CNc2ccccc2)o1)N1CCCc2ccccc21` .
active

Please share the test call associated with `COc1ccc(OCCNS(=O)(=O)c2ccc3oc4ccccc4c3c2)cc1` .
active

Please share the test call associated with `COc1ccc2[nH]cc(CCNc3cc(-c4ccoc4)ncn3)c2c1` .
active

Please share the test call associated with `COc1ccc(NC(=O)CCNS(=O)(=O)c2ccc3c(c2)c(=O)n(C)c(=O)n3C)cc1` .
inactive

Please share the test call associated with `COc1ccc(C(OCCN2CCC[C@@H](C(=O)O)C2)(c2ccc(OC)cc2)c2ccc(OC)cc2)cc1` .
inactive

Please share the test call associated with `O=C(N[C@@H](c1ccccc1)[C@@H]1C[C@H]1C(=O)NCc1ccccn1)OCc1ccccc1` .
active

Please share the test call associated with `CC(=O)N(/N=C1\Sc2ccccc2C1=O)c1ccccc1C` .
active

Please share the test call associated with `O=C(CSc1nnc(CNc2ccc(F)cc2)o1)OC1CCCCC1` .
active

Please share the test call associated with `CCCN[C@@H](C)C(=O)Nc1c(C)csc1C(=O)OC` .
inactive

====

Target: Cytochrome P450 2C19 (Homo sapiens) (UniProt P33261)
Assay: Cytochrome panel assay with activity outcomes
Details: recombinant CYP, pro-luciferin dealkylation, luminescence, p450-cyp2c19; series mostly up to 57.1 µM
Method: The P450 gene superfamily is involved in the metabolism and clearance of xenobiotics. This assay used various human CYP P450 isozymes to measure the dealkylation of various pro-luciferin substrates to luciferin. The luciferin is then measured by luminescence after the addition of a luciferase detection reagent. […] Inhibitors and some substrates limit the production of luciferin, and decrease measured luminescence. […] 8, Detection, 1 sec, ViewLux luminescent read […]
Hit rate of the full screen: of about 16,000 compounds, about 5,800 (36%) were called active. Another 23% or so got no clear call; they are omitted. The call rests on the fitted dose curve; in most records, active means well fitted curve in the direction sought with a large enough effect; inconclusive means small, poorly fitted or top-dose-only effect, or effect the other way; inactive means no such curve, though single readings can be large or run the other way. This is one part of the list.
Classes to choose from: t for active, f for inactive

Some solved cases for reference:
| Chemical string | Assay system | Label |
| --- | --- | --- |
| COc1ccc(CNC(=O)c2cnc(C)cn2)cc1 | Cytochrome P450 2C19 (Homo sapiens) (UniProt P33261) | t |
| O=C1c2ccccc2C(=O)N1CCSC(=S)N1CCOCC1 | Cytochrome P450 2C19 (Homo sapiens) (UniProt P33261) | t |
| Cc1cc(C(C)(C)CC(C)(C)C)ccc1OCCOCC[N+](C)(C)Cc1ccccc1 | Cytochrome P450 2C19 (Homo sapiens) (UniProt P33261) | f |
| COc1ccc(CNC(=O)c2csc(Cc3ccc(OC)cc3)n2)cc1 | Cytochrome P450 2C19 (Homo sapiens) (UniProt P33261) | t |
| CCN(Cc1ccccc1)Cc1cccc([N+](=O)[O-])c1 | Cytochrome P450 2C19 (Homo sapiens) (UniProt P33261) | t |

Now let's try a different one.
Please share the test call associated with `COc1ccc(CNC(=O)c2csc(Cc3ccc(Cl)cc3)n2)cc1` .
t

====

molecular target: Cytochrome P450 2C19 (Homo sapiens) (UniProt P33261); experiment: Cytochrome panel assay with activity outcomes; settings: recombinant CYP, pro-luciferin dealkylation, luminescence, p450-cyp2c19; series mostly up to 57.1 µM
Hit rate of the full screen: of about 16,000 compounds, about 5,800 (36%) were called active. Roughly 23% stayed inconclusive and do not appear here. The call rests on the fitted dose curve; in most records, active means well fitted curve in the direction sought with a large enough effect; inconclusive means small, poorly fitted or top-dose-only effect, or effect the other way; inactive means no such curve, though single readings can be large or run the other way. This is one part of the list.
Classes to choose from: yes for active, no for inactive

| Compound | Assay system | Label |
| --- | --- | --- |
| CCN(CC)C(=O)Cn1cc(/C=C(\C#N)C(=O)N2CCN(c3ccccc3)CC2)c2ccccc21 | Cytochrome P450 2C19 (Homo sapiens) (UniProt P33261) | yes |
| COc1cc(OC)cc(C(=O)NC(=S)Nc2ccc(Cl)c(C(=O)O)c2)c1 | Cytochrome P450 2C19 (Homo sapiens) (UniProt P33261) | no |

Please share the test call associated with `Cc1cc(NCc2ccccn2)ccc1Br` .
yes

Please share the test call associated with `Cc1c(Cl)c([N+](=O)[O-])nn1Cc1ccc(C(=O)N/N=C\c2cc(Cl)ccc2O)o1` .
yes

Please share the test call associated with `CS(=O)(=O)N1CCC2(CCCN(c3ccncc3)C2)CC1` .
yes

Please share the test call associated with `O=S(=O)(NCc1cc(-c2ccccc2Cl)no1)c1ccccc1` .
yes

Please share the test call associated with `CCN(CC)C(=O)CSc1nnc(-c2ccncc2)n1N` .
no

Please share the test call associated with Cc1[nH]c2ccccc2c1/C=C(\C#N)C(=O)NC(C)c1ccccc1 (stereo not given) .
yes

Please share the test call associated with `CCc1cccc2c(C=C(C#N)C#N)cn(CC(=O)N3CCCCC3)c12` .
no

Please share the test call associated with `Cc1c(Cl)c([N+](=O)[O-])nn1Cc1ccc(C(=O)N/N=C\c2cccc(Br)c2)o1` .
yes

Please share the test call associated with CCNC(=O)C1CC(=O)OC12CCCCC2 (stereo not given) .
no

Please share the test call associated with `Cc1ccccc1N1CCN(S(=O)(=O)C[C@@]23CC[C@H](C[C@H]2NC(=O)[C@@H](N)CCS(C)(=O)=O)C3(C)C)CC1` .
no

====

target: Cytochrome P450 2C19 (Homo sapiens) (UniProt P33261); test: Cytochrome panel assay with activity outcomes; details: recombinant CYP, pro-luciferin dealkylation, luminescence, p450-cyp2c19; series mostly up to 57.1 µM
The whole screen tested about 16,000 compounds, of which about 5,800 (36%) were called active. Another 23% or so got no clear call; they are omitted. The call rests on the fitted dose curve; in most records, active means well fitted curve in the direction sought with a large enough effect; inconclusive means small, poorly fitted or top-dose-only effect, or effect the other way; inactive means no such curve, though single readings can be large or run the other way. The list shows a part of the results.
Classes to choose from: active, inactive

Please share the test call associated with `CCn1c(SCC(=O)Nc2ccccc2C(=O)OC)nnc1-c1ccc(N)cc1` .
active

Please share the test call associated with `CC(C)(Oc1ccc([C@@H]2CC2(Cl)Cl)cc1)C(=O)O` .
inactive

Please share the test call associated with `C=CCc1cc(C=O)cc(OC)c1OCc1ccc(Cl)cc1` .
active

Please share the test call associated with `CC(C)(Oc1ccc(CCNC(=O)c2ccc(Cl)cc2)cc1)C(=O)O` .
inactive

Please share the test call associated with `CC(C)(Oc1ccc(Cl)cc1)C(=O)Nc1cccnc1` .
active

Please share the test call associated with `CSc1n[nH]c(-c2sccc2OCc2ccc(C)cc2)n1` .
active
